Target: T1, TDP-222 peptide (human)
T1 construct: 8-mer of human TDP-43; same ELISA method as for the biotinylated 15-mers
T1 peptide: IPKPFRAF
Assay: indirect ELISA, 8-mer peptide library
parameterMeasured: binding result

ACI-7062-401A2-Ab2 (antibody, IgG1, V domains shown, also called 401A2C6; clone 2) VH: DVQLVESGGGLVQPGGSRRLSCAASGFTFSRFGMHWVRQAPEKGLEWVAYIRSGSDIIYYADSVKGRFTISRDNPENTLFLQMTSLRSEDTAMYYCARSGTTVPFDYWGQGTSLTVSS VL: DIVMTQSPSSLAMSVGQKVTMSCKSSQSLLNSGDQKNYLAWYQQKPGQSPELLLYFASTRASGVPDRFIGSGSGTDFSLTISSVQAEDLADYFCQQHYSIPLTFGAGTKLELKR = no binding
ACI-7062-412A7-Ab1 (antibody, IgG2b, V domains shown, also called 412A7B7; clone 9) VH: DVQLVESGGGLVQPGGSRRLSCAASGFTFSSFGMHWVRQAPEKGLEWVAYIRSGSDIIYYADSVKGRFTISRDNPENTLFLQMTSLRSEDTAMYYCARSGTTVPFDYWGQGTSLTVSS VL: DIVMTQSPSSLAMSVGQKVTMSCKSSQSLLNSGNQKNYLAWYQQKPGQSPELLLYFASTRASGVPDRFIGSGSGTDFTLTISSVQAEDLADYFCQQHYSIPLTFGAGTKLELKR = no binding
ACI-7062-410H3-Ab1 (antibody, IgG1, V domains shown, also called 410H3B9; clone 7) VH: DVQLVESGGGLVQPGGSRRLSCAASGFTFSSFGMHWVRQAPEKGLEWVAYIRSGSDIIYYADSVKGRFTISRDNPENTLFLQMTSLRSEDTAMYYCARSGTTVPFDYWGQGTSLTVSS VL: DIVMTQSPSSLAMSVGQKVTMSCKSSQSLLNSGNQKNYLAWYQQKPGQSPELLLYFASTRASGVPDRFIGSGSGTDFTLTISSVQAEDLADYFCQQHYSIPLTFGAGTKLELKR = no binding
